Sourced from patent US8178506B2

I'd be grateful if you could share measured AP2 mRNA for these entries.
System: aP2
Protocol description: aP2 mRNA expression in adipocytes (real-time PCR)
Format: cell-based, human
Recorded conditions: Table 17; differentiating adipocytes; control = treatment with ISIS 342673
In the oligonucleotide strings, read from the 5' end, every base follows the letter of its sugar. An asterisk marks phosphorothioate; unmarked linkages are phosphodiester. Other units and linkages are bracketed, terminal groups are in braces. A string of capitals states the bases alone. e = 2'-O-(2-methoxyethyl) (MOE); [5mC] = 5-methylcytosine; d = 2'-deoxy (DNA)

Examples with their reported AP2 mRNA follow.
[[record]]
substance = "105990 (antisense AGCAAAAGATCAATCCGTTA; sugars from the 5' end e5 d10 e5, backbone and methylation of C not given here) [compound 105990]"
value_type = "AP2 mRNA"
result = "51.6 percentage of control"

[[record]]
substance = "328128 (antisense eA*eG*eT*eA*eA*e[5mC]*eT*eT*e[5mC]*eT*eT*eG*e[5mC]*eA*eG*eT*eT*eG*eG*eA) [compound 328128]"
value_type = "AP2 mRNA"
result = "100.7 percentage of control"

[[record]]
substance = "328136 (eA*eA*e[5mC]*eT*eA*e[5mC]*eT*eT*e[5mC]*e[5mC]*eA*eG*eA*eG*e[5mC]*eA*eG*eG*eT*eG*eA; anti-miR) [compound 328136]"
value_type = "AP2 mRNA"
result = "73.0 percentage of control"

[[record]]
substance = "328126 (antisense e[5mC]*e[5mC]*eA*eA*eG*eT*eG*eT*eT*eA*eG*eA*eG*e[5mC]*eA*eA*eG*eA*eT*e[5mC]*eA) [compound 328126]"
value_type = "AP2 mRNA"
result = "90.9 percentage of control"


I would be grateful if you could provide AP2 mRNA for each of the following entries.
1. 328120 (antisense eA*eA*eG*eA*eA*eG*eG*eA*eA*eG*eG*eA*eG*eG*eG*eA*eA*eA*eG*e[5mC]*eA) [compound 328120]
2. 328117 (antisense eT*e[5mC]*e[5mC]*eA*e[5mC]*eA*eA*eA*eG*e[5mC]*eT*eG*eA*eA*e[5mC]*eA*eT*eG*eT*e[5mC]*eT) [compound 328117]
3. 328138 (eG*eA*eG*e[5mC]*eT*eG*e[5mC]*eT*e[5mC]*eA*eG*e[5mC]*eT*eG*eG*e[5mC]*e[5mC]*eA*eT*e[5mC]*eA; anti-miR) [compound 328138]
4. 328133 (eT*eG*eA*eA*eG*eG*eT*eT*e[5mC]*eG*eG*eA*eG*eA*eT*eA*eG*eG*e[5mC]*eT*eA; anti-miR) [compound 328133]
5. 328127 (antisense eA*eA*e[5mC]*eG*eA*eT*eA*eA*eA*eA*e[5mC]*eA*eT*eA*e[5mC]*eT*eT*eG*eT*e[5mC]*eA) [compound 328127]
6. 328125 (antisense eT*eA*eT*eG*eA*eA*eA*eT*eG*e[5mC]*e[5mC]*eA*eG*eA*eG*e[5mC]*eT*eG*e[5mC]*e[5mC]*eA) [compound 328125]
7. 328137 (eG*eT*eA*eA*eG*e[5mC]*eG*e[5mC]*eA*eG*e[5mC]*eT*e[5mC]*e[5mC]*eA*e[5mC]*eA*eG*eG*e[5mC]*eT; anti-miR) [compound 328137]

Response line:
1: 81.0 percentage of control; 2: 65.4 percentage of control; 3: 85.3 percentage of control; 4: 69.5 percentage of control; 5: 86.9 percentage of control; 6: 86.9 percentage of control; 7: 99.6 percentage of control
